Test system: XIP peptide (Xip251-270)
assayNotes: small-molecule binders of XIP peptide, primary screen, biochemical, small-molecule microarray, fluorescence 635/667 nm, 0.5 µg/mL protein (AID 1183)
assayConditions: small-molecule microarray binding, fluorescence 635 nm; higher = more signal
Please respond with reported composite z-score for every item in the list.
// keep it numeric: no unit symbol after the value

// query Report measured composite z-score; entry is `CCCC[C@@H]1C[C@H]1[C@@H](NC(=O)c1cccs1)c1ccc(Cl)cc1`
// result -0.0771

// query Report measured composite z-score; entry is `NC(=O)[C@H]1[C@@H]2C(=O)O[C@@H](c3ccccc3)[C@@H](c3ccccc3)N2[C@@H](c2ccc(O)cc2)[C@]12C(=O)Nc1ccc(C#CCCO)cc12`
// result -0.413

// query Report measured composite z-score; entry is CC[C@H]1C2=C3C(CC[C@H]4C(OC)OC[C@](C)([C@@H]34)N(C(=O)OC(C)(C)C)C2)C(CO)C1CO (stereo partly specified)
// result 0.701

// query Report measured composite z-score; entry is `COCCOC(=O)N1C(=O)[C@@]2(c3cc(C#CCCO)ccc31)[C@H](c1ccc(OCCO)cc1)N1[C@H](c3ccccc3)[C@H](c3ccccc3)OC(=O)[C@H]1[C@@H]2C(=O)NC[C@H](O)c1ccccc1`
// result 0.765

// query Report measured composite z-score; entry is `CC(C)[Si](OCC[C@H]1O[C@]2(C(=O)N(Cc3ccccc3)c3ccccc32)[C@@H](C)[C@@H]1[Si](C)(C)O)(C(C)C)C(C)C`
// result 0.457

// query Report measured composite z-score; entry is C[C@H]1NC(=O)[C@@H](C)NC(=O)[C@@]23C(=O)N[C@@H](Cc4ccccc4)C2[C@H](C)[C@@]2(C)O[C@H]2C3/C=C/C/C=C\CNC1=O (stereo partly specified)
// result -0.166

* * *

Please respond with reported composite z-score for every item in the list.
assayNotes: binders of probe aHhip on microarray, primary screen, stem cell growth factor project, biochemical, small-molecule microarray, fluorescence 635/667 (AID 1087);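 further: score merges spot fluorescence at 667nm with spot signal to noise ratio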
assayConditions: higher = more signal
// keep it numeric: no unit symbol after the value

// query Report measured composite z-score; entry is `CO[C@@H]1COC(=O)[C@H](C)NC(=O)CC=C[C@@H](C)[C@H](NS(=O)(=O)c2ccc(C)cc2)COC(=O)CC=C[C@@H]1C`
// result -0.388

// query Report measured composite z-score; entry is `O=C(CS)NCCCCCCNC(=O)[C@@H]1C[C@@H]2C(=O)N[C@@H](Cc3ccccc3)C(=O)N2[C@@H]1c1ccc(O)cc1`
// result 0.0373

// query Report measured composite z-score; entry is `CO[C@H]1COC(=O)[C@@H](C)NC(=O)CC=C[C@@H](C)[C@H](OC)COC(=O)CC=C[C@@H]1C`
// result 0.0596

// query Report measured composite z-score; entry is `O=C(O)[C@@H]1Cc2c([nH]c3ccccc23)[C@@H](c2ccccc2)N1`
// result -0.0522

// query Report measured composite z-score; entry is `C=CC[C@@]1(C(=O)N2CCOCC2)N=C(c2ccc(OCCCO)cc2)O[C@@H]1c1ccccc1`
// result -0.712

// query Report measured composite z-score; entry is `COC(=O)[C@@]1(Cc2ccc(OC)cc2)[C@H]2c3cc(C(=O)N(C)C)n(CCc4ccc(OC)c(Br)c4)c3C[C@H]2CN1C(=O)c1ccccc1`
// result -0.0489

// query Report measured composite z-score; entry is `COc1cc(Cc2cc3c(c(CCc4ccccc4)n2)[Si](C(C)C)(C(C)C)OC3)cc(OC)c1OC`
// result -0.0672

// query Report measured composite z-score; entry is `C=CC[C@]1(C(=O)O)N=C(c2ccc(OCCCO)cc2)O[C@H]1c1ccccc1N=[N+]=[N-]`
// result -0.403

* * *

assayNotes: binders of probe aFGF10 on microarray, primary screen, stem cell growth factor project, biochemical, small-molecule microarray, fluorescence 635/667 (AID 1071);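 further: score merges 667 nm spot intensity and signal to noise from triplicate slides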
assayConditions: higher = more signal
Would you please tag the item true (1) when its composite z-score is 0.3 or above, and false (0) when it is below?

// query For this compound, is measured composite z-score 0.3 or higher? `COc1cc([C@@H]2N[C@H](C(=O)O)Cc3c2[nH]c2ccccc32)cc(OC)c1OC`
// result false (0)

// query For this compound, is measured composite z-score 0.3 or higher? `COc1cccc([C@H]2N[C@H](C(=O)O)CC[C@@H]2C)c1`
// result false (0)

// query For this compound, is measured composite z-score 0.3 or higher? O=C1C2C=CC(C(O)Cc3ccccc3)N(Nc3ccc([N+](=O)[O-])cc3)C2C(=O)N1c1ccccc1 (stereo not drawn)
// result true (1)

// query For this compound, is measured composite z-score 0.3 or higher? `COc1ccc([Si](C)(C)[C@@H]2[C@@H](CCO)O[C@]3(C(=O)N(Cc4ccc(NC(=O)[C@H](C)O)cc4)c4ccccc43)[C@H]2C)cc1`
// result true (1)

// query For this compound, is measured composite z-score 0.3 or higher? COC(=O)C1=CC(c2ccc(CO)cc2)=CC(c2cccs2)N(Cc2cccc(OC(F)(F)F)c2)C=C1C(=O)OC (stereo not drawn)
// result true (1)

// query For this compound, is measured composite z-score 0.3 or higher? `O=C(N1CCCCC1)[C@@]1(CCS(=O)(=O)c2ccccc2)N=C(c2ccc(OCCCO)cc2)O[C@H]1c1ccccc1`
// result true (1)

// query For this compound, is measured composite z-score 0.3 or higher? `CO[C@@H]1COC(=O)CC=C[C@H](C)COC(=O)[C@H](Cc2ccccc2)NC(=O)CC=C[C@H]1C`
// result false (0)

* * *

studySystem: Follistatin-related protein 3 (Homo sapiens) (UniProt O95633)
Sequence (O95633 whole entry, looked up): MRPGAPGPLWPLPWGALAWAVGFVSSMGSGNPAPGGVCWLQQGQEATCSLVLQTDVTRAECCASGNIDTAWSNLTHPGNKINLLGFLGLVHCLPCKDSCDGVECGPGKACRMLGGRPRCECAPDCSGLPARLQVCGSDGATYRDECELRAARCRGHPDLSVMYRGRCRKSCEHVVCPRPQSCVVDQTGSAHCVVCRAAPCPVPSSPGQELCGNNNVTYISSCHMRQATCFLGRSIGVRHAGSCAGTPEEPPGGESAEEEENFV
assayNotes: FSTL3 binders on small-molecule microarrays, primary screen, biochemical, small-molecule microarray, 635 nm fluorescence (AID 1105);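 further: score merges emission near 667 nm and signal to noise per printed spot across three slides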
assayConditions: FSTL3 binding, higher = more signal
reportedEndpoint: composite z-score
// keep it numeric: no unit symbol after the value

// query Report measured composite z-score; entry is `CCOC(=O)C[C@H]1[C@H](OC(=O)c2cc3ccccc3oc2=O)[C@@H](NC(=O)c2ccc3ccccc3c2)c2cc(OCCCO)ccc2N1C(=O)c1ccc2ccccc2n1`
// result 1.09

// query Report measured composite z-score; entry is `Cc1ccc(S[C@]2(C(=O)NCCCN(C)C)CC(=O)N(C3CCCCC3)[C@@H]2c2ccc(CO)cc2I)cc1`
// result -0.593

// query Report measured composite z-score; entry is `COC(=O)C1=C(C)N(Cc2ccccc2)c2c(C(=O)OC)c(C(=O)OC)c(C(=O)OC)c(=O)n2[C@@H]1c1ccccc1`
// result 0.287

// query Report measured composite z-score; entry is `O=C1C[C@@](C(=O)NC2CC2)(c2ccc([N+](=O)[O-])cc2)[C@@H](c2ccc(CO)cc2I)N1CC12CC3CC(CC(C3)C1)C2`
// result 0.991

* * *

assayNotes: CREB reporter modulators under forskolin, primary screen, cell-based, PC12, CRE-LacZ reporter, forskolin-stimulated (AID 1146);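 further: PC12 cells with 6xCRE LacZ reporter stimulated by forskolin 10 µM; beta-galactosidase reporter signal reflecting CREB driven transcription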
assayConditions: luminescence, 4.5 h, higher = more signal, called active from +8 up or from −8 down
Categories are defined by ranges of z-score, namely low range = under -0.8, mid range = from -0.8 up to 0.2, high range = 0.2 and over

// query Please report the category associated with O=C1OCCC/C=C\[C@H]2OC34C=CCN(CCN5CCOCC5)C(=O)[C@H]3N(CCCCCO)C(=O)[C@@H]4C12 (stereo partly specified) , nothing else.
// result high range

// query Please report the category associated with `NC(=O)NCC#Cc1ccc2c(c1)[C@]1(C(=O)N2)[C@H](C(N)=O)[C@H]2C(=O)O[C@H](c3ccccc3)[C@H](c3ccccc3)N2[C@@H]1c1ccccc1OCCO` , nothing else.
// result mid range

// query Please report the category associated with O=C1OCC=C[C@H]2OC34C=CCN(Cc5ccccc5)C(=O)[C@H]3N(CCO)C(=O)[C@@H]4[C@@H]12 (stereo partly specified) , nothing else.
// result mid range

// query Please report the category associated with `COCCCNC(=O)[C@@H]1c2ccccc2C(=O)N(CC23CC4CC(CC(C4)C2)C3)[C@H]1c1ccc(CO)cc1` , nothing else.
// result low range

// query Please report the category associated with `COc1ccc([Si](C)(C)[C@H]2[C@H](CC(=O)N(CCO)Cc3ccccc3)O[C@@]3(C(=O)N(C)c4ccccc43)[C@@H]2C)cc1` , nothing else.
// result mid range

// query Please report the category associated with `COCCOC(=O)N1C(=O)[C@@]2(c3cc(C#CCNC(N)=O)ccc31)[C@H](c1ccccc1OCCO)N1[C@H](c3ccccc3)[C@H](c3ccccc3)OC(=O)[C@H]1[C@@H]2C(=O)NC[C@H](O)c1ccccc1` , nothing else.
// result mid range

// query Please report the category associated with `O=C1O[C@@H](c2ccccc2)[C@@H](c2ccccc2)N2[C@@H](c3ccc(O)cc3)[C@]3(C(=O)Nc4ccccc43)[C@@H](C(=O)N3CCN(c4ncccn4)CC3)[C@H]12` , nothing else.
// result mid range

// query Please report the category associated with `COc1cc(CO)cc(I)c1O[C@H]1C=C(C(=O)NCCO)C[C@@H](NCCc2c[nH]c3ccccc23)[C@@H]1O` , nothing else.
// result low range

// query Please report the category associated with `CO[C@H]1COC(=O)[C@H](C)COC(=O)[C@H](Cc2ccccc2)NC(=O)CC=C[C@H]1C` , nothing else.
// result low range

// query Please report the category associated with C=CCC(OC(C)=O)[C@@H]1[C@@H](N(Cc2cc3ccccc3o2)C(=O)Cc2ccc(F)cc2)c2cc(OCCCO)ccc2N1C(=O)c1ccc(-c2ccccc2)cc1 (stereo partly specified) , nothing else.
// result mid range

// query Please report the category associated with O=C1C2C=CC(C(O)c3ccccc3)N(n3cnnc3)C2C(=O)N1Cc1ccccc1 (stereo unspecified) , nothing else.
// result mid range

// query Please report the category associated with CC[C@H]1C2=C3C(CC[C@H]4C(OC)OC[C@](C)([C@@H]34)N(C(=O)OC(C)(C)C)C2)C(CO)C1CO (stereo partly specified) , nothing else.
// result high range

// query Please report the category associated with `CCCC=C(CCC)[C@@H](NC(=O)c1ccccc1)c1ccccc1` , nothing else.
// result high range

// query Please report the category associated with `CC(C)[Si](OCC[C@H]1O[C@]2(C(=O)N(Cc3ccccc3)c3ccccc32)[C@@H](C)[C@@H]1[Si](C)(C)O)(C(C)C)C(C)C` , nothing else.
// result mid range

// query Please report the category associated with `COCCOC(=O)N1C(=O)[C@@]2(c3cc(C#CC4=CCCCC4)ccc31)[C@H](C(=O)NC[C@H](O)c1ccccc1)[C@H]1C(=O)O[C@H](c3ccccc3)[C@H](c3ccccc3)N1[C@@H]2c1ccc(OCCO)cc1` , nothing else.
// result high range

// query Please report the category associated with `COc1cc2c(cc1OC)CN(C(=O)[C@H]1[C@@H]3C(=O)O[C@@H](c4ccccc4)[C@@H](c4ccccc4)N3[C@@H](c3ccc(O)cc3)[C@]13C(=O)Nc1ccc(C#CC4(O)CCCCCC4)cc13)CC2` , nothing else.
// result high range

// query Please report the category associated with `CC(C)[Si]1(C(C)C)OCc2cc(C3CC3)nc(-c3ccccc3)c21` , nothing else.
// result low range

// query Please report the category associated with `C=CC[C@@]1(C(=O)N2CCOCC2)N=C(c2ccc(OCCCO)cc2)O[C@@H]1c1ccccc1` , nothing else.
// result mid range

// query Please report the category associated with CCC1=C2CN(Cc3ccccc3Br)[C@@H]([C@@H](O)Cc3ccccc3)C2C=CCC1 (stereo partly specified) , nothing else.
// result high range

// query Please report the category associated with `CC(C)(C)OC(=O)CC[C@]1(C(=O)NCCN2CCOCC2)N=C(c2ccc(OCCCO)cc2)O[C@H]1c1ccccc1CN=[N+]=[N-]` , nothing else.
// result low range

Reference source: PubChem BioAssay
